- experimental.details: A549 cell viability effects, profiling panel, calcein-AM fluorescence, 48 h, basal (AID 1162); note: test concentration not given here
- condition.label: higher = more signal
property: z-score
One number for each entry.

Here are 2 molecules together with their reported answers.
{"columns": ["smiles.structure", "recorded.value"],
 "data": [
  ["CO[C@H]1O[C@H](CO)[C@@H](OC(=O)Nc2ccccc2)[C@H](OC(=O)Nc2ccccc2-c2ccccc2)[C@H]1OC(=O)Nc1ccccc1-c1ccccc1", -4.11],
  ["CCCC[C@@H](O)C1=C(C)C[C@H]2C(=O)N(C)C(=O)[C@H]2[C@H]1CO", 2.36]
]}

Please examine the following record next.
I have this molecule here, "C=C(COC)/C(=C/C[C@H](OC(C)=O)c1ccc(CO)o1)c1cnc2ccccc2c1" , and I need its recorded z-score.
0.283
